For each of the compounds below, state its IC50.
Biological target: MAPKAPK2 (MK-2) (Homo sapiens)
Sequence (P49137 whole entry, species assumed): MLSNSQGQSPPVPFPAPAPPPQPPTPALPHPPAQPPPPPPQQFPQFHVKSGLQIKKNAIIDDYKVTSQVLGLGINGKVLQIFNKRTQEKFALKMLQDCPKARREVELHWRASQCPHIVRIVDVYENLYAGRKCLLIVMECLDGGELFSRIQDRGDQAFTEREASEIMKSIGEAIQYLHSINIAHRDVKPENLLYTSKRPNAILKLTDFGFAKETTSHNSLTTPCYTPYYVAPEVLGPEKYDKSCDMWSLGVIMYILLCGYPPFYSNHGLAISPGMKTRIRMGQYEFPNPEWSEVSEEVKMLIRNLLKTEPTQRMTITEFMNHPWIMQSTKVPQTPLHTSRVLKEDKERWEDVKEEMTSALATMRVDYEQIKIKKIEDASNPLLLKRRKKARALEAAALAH
Test: Determination of MK-2 IC50 (HSP-peptide phosphorylation, anion exchange resin capture assay)
Format: biochemical
Settings: Table 1, phenoxypyrazole MK-2 inhibitors; read-out: MK-2 Avg, IC50

Look at this compound and give its reported IC50. CCN(CC)CCNC(=O)c1nn(-c2ccc(Cl)cc2)c2c1CCc1cc(OC)ccc1-2
> 200 µM

Look at this compound and give its reported IC50. NCCCn1nc2c(c1C(=O)O)CCc1cc(O)c(-c3ccc(Cl)cc3)cc1-2
11 µM

Look at this compound and give its reported IC50. CCOC(=O)c1[nH]nc2c1CCc1cc(OC)c(OC)cc1-2
> 200 µM

Look at this compound and give its reported IC50. COC(=O)c1nn(-c2ccc(S(N)(=O)=O)cc2)c2c1CCc1cc(OC)ccc1-2
> 200 µM

Look at this compound and give its reported IC50. COc1cc2c(cc1CCc1ccc(Cl)cc1)-c1nn(CCCNC(=O)OC(C)(C)C)c(C(=O)O)c1CC2
59.6 µM

Look at this compound and give its reported IC50. COC(=O)c1nn(-c2ccc(OC)cc2)c2c1CCc1cc(OC)ccc1-2
> 200 µM

Look at this compound and give its reported IC50. NCCCn1nc2c(c1C(=O)O)CCc1cc(O)c(-c3cccc(Cl)c3)cc1-2
10.5 µM

Look at this compound and give its reported IC50. CNC(=O)c1[nH]nc2c1CCc1cc(O)ccc1-2
176 µM

Look at this compound and give its reported IC50. COC(=O)c1c2c(nn1CCCNC(=O)OC(C)(C)C)-c1ccc(OC)cc1CC2
> 200 µM

Look at this compound and give its reported IC50. CCOC(=O)c1nn(-c2ccc(S(N)(=O)=O)cc2)c2c1CCc1cc(OC)c(OC)cc1-2
> 200 µM

Look at this compound and give its reported IC50. COc1ccc2c(c1)CCc1c(C(=O)NCCCN(C)C)nn(-c3ccc(Cl)cc3)c1-2
> 200 µM

Look at this compound and give its reported IC50. C=CCn1nc2c(c1C(N)=O)CCc1cc(OCOCCOC)ccc1-2
> 200 µM

Look at this compound and give its reported IC50. CCOC(=O)c1nn(-c2ccccc2)c2c1CCc1cc(OC)c(OC)cc1-2
> 200 µM

Look at this compound and give its reported IC50. COc1cc2c(cc1-c1cccc(C(F)(F)F)c1)-c1nn(CCCNC(=O)OC(C)(C)C)c(C(=O)O)c1CC2
63.8 µM

Look at this compound and give its reported IC50. C=CCC1Cc2c(C(=O)O)n[nH]c2-c2ccc(O)cc21 (centres unmarked)
148 µM

Look at this compound and give its reported IC50. CCOC(=O)c1nn(-c2ccc(S(N)(=O)=O)cc2)c2c1CCc1cc(O)ccc1-2
> 200 µM

Look at this compound and give its reported IC50. NC(=O)c1[nH]nc2c1CCc1c-2ccc(O)c1Br
17.6 µM

Look at this compound and give its reported IC50. C=CCn1nc2c(c1C(=O)O)CCc1cc(O)ccc1-2
35.6 µM

Look at this compound and give its reported IC50. CC(C)(C)c1ccc(-c2cc3c(cc2O)CCc2c-3nn(CCCN)c2C(=O)O)cc1
18.8 µM

Look at this compound and give its reported IC50. COC(=O)c1[nH]nc2c1CCc1cc(O)c(O)cc1-2
154 µM

Look at this compound and give its reported IC50. CS(=O)(=O)c1cccc(-c2cc3c(cc2O)CCc2c-3nn(CCCN)c2C(=O)O)c1
12.9 µM

Look at this compound and give its reported IC50. COc1cc2c(cc1-c1ccc(C(C)(C)C)cc1)-c1nn(CCCNC(=O)OC(C)(C)C)c(C(=O)O)c1CC2
65.7 µM

Look at this compound and give its reported IC50. NCCn1nc2c(c1C(=O)O)CCc1cc(O)c(Br)cc1-2
2.14 µM

Look at this compound and give its reported IC50. COC(=O)c1[nH]nc2c1CCc1cc(OC)ccc1-2
> 200 µM

Look at this compound and give its reported IC50. CCOC(=O)c1nn(-c2ccc(S(N)(=O)=O)cc2)c2c1CCc1cc(OC)ccc1-2
> 200 µM

Look at this compound and give its reported IC50. COCCOCOc1ccc2c(c1)CCc1c-2n[nH]c1C(=O)O
150 µM

Look at this compound and give its reported IC50. O=C(O)c1n[nH]c2c1CC(c1ccccc1)c1cc(O)ccc1-2 (centres unmarked)
> 200 µM

Look at this compound and give its reported IC50. NCCCn1nc2c(c1C(=O)O)CCc1cc(O)c(-c3ccc([N+](=O)[O-])cc3)cc1-2
4.91 µM

Look at this compound and give its reported IC50. N#Cc1cccc(-c2cc3c(cc2O)CCc2c-3nn(CCCN)c2C(=O)O)c1
5.35 µM

Look at this compound and give its reported IC50. COC(=O)c1[nH]nc2c1CCc1cc(OC)c(Br)cc1-2
> 200 µM

Look at this compound and give its reported IC50. COC(=O)c1c2c(nn1CCCNC(=O)OC(C)(C)C)-c1cc(Br)c(OC)cc1CC2
> 200 µM

Look at this compound and give its reported IC50. NCCCn1nc2c(c1C(=O)O)CCc1cc(O)c(-c3cccc(C(=O)O)c3)cc1-2
47.3 µM

Look at this compound and give its reported IC50. CC1Cc2cc(O)ccc2-c2n[nH]c(C(N)=O)c21 (centres unmarked)
173 µM

Look at this compound and give its reported IC50. CNc1ccc(-c2cc3c(cc2O)CCc2c-3nn(CCCN)c2C(=O)O)cc1
17.7 µM

Look at this compound and give its reported IC50. CC(C)(C)OC(=O)NCCCn1nc2c(c1C(=O)O)CCc1cc(O)ccc1-2
181 µM
